Data provenance: patent EP0587106B1

Assay: physchem
Conditions: pH 3
observable: solubility at 24 h (µg/mL)
Give a bare numeral; the unit µg/mL is implied.

Ask | Provide measured solubility at 24 h value, entry: CCCCCCCCCCCCCC(=O)O [Samarium miristate, samarium miristate]
Reply | 8
